test: Negative allosteric modulator activity at human P-gp T1226F mutant expressed in HEK293FT cells assessed as reversal of P-gp mediated PTX resistance by measuring paclitaxel IC50 incubated for 5 days by MTS assay (Rvb = 409.9 +/- 19.7 nM)
pIC50: −log10 of the molar value.
EXPERIMENTAL_ENDPOINT: pIC50

given_smiles=O=c1cc(-c2ccc(OCCOCCNCc3ccccc3)cc2)oc2ccccc12 experimental_endpoint=pIC50 obs_value=8.16

###

assay: Negative allosteric modulator activity at human P-gp Q1193N mutant expressed in HEK293FT cells assessed as reversal of P-gp mediated PTX resistance by measuring paclitaxel IC50 incubated for 5 days by MTS assay (Rvb = 560.2 +/- 43.9 nM)
pIC50: −log10 of the molar value.
EXPERIMENTAL_ENDPOINT: pIC50

given_smiles=O=c1cc(-c2ccc(OCCOCCNCc3ccccc3)cc2)oc2ccccc12 obs_value=7.96
